# Tested on: giant foxtail (Setaria faberii)
# protocol summary: Test B pre-/postemergence plant response
# Format: in vivo
# conditions used: Preemergence, 125 g ai/ha; 0 to 100 scale (0 no effect, 100 complete control)
endpoint name: Foxtail, Giant plant response rating
Answers are plain numbers.

[[record]]
compound = "Cc1csc(-c2c(C#N)cccc2Oc2ncc(Cl)cn2)c1 [Compound 238]"
system_name = "giant foxtail (Setaria faberii)"
result = 20

[[record]]
compound = "Clc1cnc(Oc2ccccc2-c2cocn2)nc1 [Compound 214]"
system_name = "giant foxtail (Setaria faberii)"
result = 0

[[record]]
compound = "Cn1ccnc1-c1ccccc1Oc1ncc(Br)cn1 [Compound 152]"
system_name = "giant foxtail (Setaria faberii)"
result = 0

[[record]]
compound = "N#Cc1cccc(Oc2ncc(Cl)cn2)c1-c1ccc(Cl)cn1 [Compound 202]"
system_name = "giant foxtail (Setaria faberii)"
result = 70

[[record]]
compound = "Clc1cnc(Oc2ccccc2-c2cc(Cl)ccn2)nc1 [Compound 174]"
system_name = "giant foxtail (Setaria faberii)"
result = 40

[[record]]
compound = "Clc1cnc(Oc2ccccc2-c2cc(Cl)cnn2)nc1 [Compound 189]"
system_name = "giant foxtail (Setaria faberii)"
result = 0


Pending compound:
Foxtail, Giant plant response rating measured on FCc1cc(-c2ccccc2Oc2ncc(Cl)cn2)on1 [Compound 224] = 90

---

Record form. Attribute: Plant response rating, Kochia. Fill in for each entry.
# System: kochia (Kochia scoparia)
# protocol summary: Test D postemergence plant response
# Type: in vivo
# conditions used: 125 g ai/ha, scale 0 to 100, 0 no effect, 100 complete control

Solved entries (count: 2):
[[record]]
compound = "Cc1cc(-c2c(F)cccc2Oc2ncc(Cl)cn2)on1 [Compound 229]"
result = 98

[[record]]
compound = "Cc1cc(-c2ccccc2Oc2ncc(Cl)cn2)no1 [Compound 153]"
result = 60


For every listed record, write down its Plant response rating, Kochia.
1. Cc1cc(-c2c(F)cccc2Oc2ncc(Br)cn2)on1 [Compound 230]
2. CC(F)(F)c1cc(-c2ccccc2Oc2ncc(Br)cn2)no1 [Compound 149]
3. Fc1cccc(Oc2ncc(Cl)cn2)c1-c1cc(C2CC2)on1 [Compound 130]
4. FC(F)(F)c1cc(-c2c(Cl)cccc2Oc2ncc(Cl)cn2)no1 [Compound 169]
5. Clc1cnc(Oc2ccccc2-c2ccon2)nc1 [Compound 185]
6. Cc1cc(-c2ccccc2Oc2ncc(Cl)cn2)on1 [Compound 58]

[100, 100, 100, 95, 30, 80]

---

Assign Foxtail, Giant plant response rating to each entry below.
# Tested on: giant foxtail (Setaria faberii)
# protocol summary: Test B pre-/postemergence plant response
# Assay type: in vivo
# conditions used: Preemergence, 125 g ai/ha; 0 to 100 scale (0 no effect, 100 complete control)
One number for each entry.

The cases that follow already have their Foxtail, Giant plant response rating on record.
[[record]]
compound = "FC(F)(F)c1cc(-c2ccccc2Oc2ncc(Cl)cn2)no1"
endpoint_name = "Foxtail, Giant plant response rating"
result = 100

[[record]]
compound = "FC(F)(F)c1cc(-c2c(I)cccc2Oc2ncc(Cl)cn2)no1"
endpoint_name = "Foxtail, Giant plant response rating"
result = 20

[[record]]
compound = "Clc1cnc(Oc2ccccc2-c2cnccn2)nc1"
endpoint_name = "Foxtail, Giant plant response rating"
result = 0

[[record]]
compound = "FC(F)c1cc(-c2c(Cl)cccc2Oc2ncc(Cl)cn2)no1"
endpoint_name = "Foxtail, Giant plant response rating"
result = 80


# ---- query molecule ----
Foxtail, Giant plant response rating measured on Fc1cccc(Oc2ncc(Cl)cn2)c1-c1cc(C(F)(F)F)no1 = 100
